# Target Entity: telomerase (Homo sapiens)
# Sequence (O14746 whole entry): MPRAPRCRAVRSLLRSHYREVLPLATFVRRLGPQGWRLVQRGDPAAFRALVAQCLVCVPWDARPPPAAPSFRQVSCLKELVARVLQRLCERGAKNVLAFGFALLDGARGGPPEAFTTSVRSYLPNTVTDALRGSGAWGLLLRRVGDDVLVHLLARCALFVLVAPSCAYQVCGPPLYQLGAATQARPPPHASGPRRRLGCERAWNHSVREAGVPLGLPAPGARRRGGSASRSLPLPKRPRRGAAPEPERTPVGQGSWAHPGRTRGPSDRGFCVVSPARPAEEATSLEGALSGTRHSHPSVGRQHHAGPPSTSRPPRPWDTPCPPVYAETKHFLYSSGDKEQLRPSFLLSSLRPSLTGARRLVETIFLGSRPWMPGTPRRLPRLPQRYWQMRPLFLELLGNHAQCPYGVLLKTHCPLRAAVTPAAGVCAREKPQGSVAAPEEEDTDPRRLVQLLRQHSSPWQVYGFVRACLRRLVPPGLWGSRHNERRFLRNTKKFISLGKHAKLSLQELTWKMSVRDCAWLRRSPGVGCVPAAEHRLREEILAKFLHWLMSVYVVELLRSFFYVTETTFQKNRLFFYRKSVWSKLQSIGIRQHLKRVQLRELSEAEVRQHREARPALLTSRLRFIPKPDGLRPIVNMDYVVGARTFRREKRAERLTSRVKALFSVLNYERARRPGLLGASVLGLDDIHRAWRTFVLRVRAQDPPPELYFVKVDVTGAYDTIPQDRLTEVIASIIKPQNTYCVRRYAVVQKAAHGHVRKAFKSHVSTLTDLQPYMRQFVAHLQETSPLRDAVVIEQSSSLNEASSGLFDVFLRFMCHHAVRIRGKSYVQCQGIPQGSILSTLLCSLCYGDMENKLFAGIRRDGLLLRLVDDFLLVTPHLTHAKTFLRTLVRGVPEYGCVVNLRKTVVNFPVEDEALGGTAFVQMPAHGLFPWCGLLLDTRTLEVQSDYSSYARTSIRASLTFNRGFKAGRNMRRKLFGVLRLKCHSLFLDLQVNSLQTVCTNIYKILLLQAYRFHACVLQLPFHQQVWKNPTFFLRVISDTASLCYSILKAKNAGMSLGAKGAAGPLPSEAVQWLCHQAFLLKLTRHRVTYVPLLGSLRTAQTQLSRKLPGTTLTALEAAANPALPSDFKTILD
# Assay Protocol: Direct telomerase repeat addition assay with radiolabeled dNTPs: dNTP titration, repeat processivity R1/2
# Format: biochemical
# Set-up: made in house; anti-FLAG immunopurification, eluted with 3xFLAG peptide
# Condition Label: (TTAGGG)3 primer; indicated dNTP at 0.5 μM, remaining three natural dNTPs at cellular concentration; Mean

# Compound, Processivity R 1/2
measured = [
    ("Nc1ncnc2c1ncn2C1CC(O)C(COP(=O)(O)OP(=O)(O)OP(=O)(O)O)O1 (stereo not drawn) [dATP]", 1.28),
    ("Nc1ncnc2c1[nH]c(=O)n2C1CC(O)C(COP(=O)(O)OP(=O)(O)OP(=O)(O)O)O1 (stereo not drawn) [8-oxo-dATP]", 0),
    ("Nc1nc2c(ncn2C2CC(O)C(COP(=O)(O)OP(=O)(O)OP(=O)(O)O)O2)c(=O)[nH]1 (stereo not drawn) [dGTP]", 1.69),
    ("Cc1cn(C2CC(O)C(COP(=O)(O)OP(=O)(O)OP(=O)(O)O)O2)c(=O)[nH]c1=O (stereo not drawn) [dTTP]", 1.28),
    ("Nc1nc(O)nc2c1ncn2C1CC(O)C(COP(=O)(O)OP(=O)(O)OP(=O)(O)O)O1 (stereo not drawn) [2-OH-dATP]", 0.46),
    ("Nc1nc2c([nH]c(=O)n2C2CC(O)C(COP(=O)(O)OP(=O)(O)OP(=O)(O)O)O2)c(=O)[nH]1 (stereo not drawn) [8-oxo-dGTP]", 0),
    ("Cc1cn([C@H]2C[C@H](N=[N+]=[N-])[C@@H](CO[P@](=O)(O)O[P@](=O)(O)OP(=O)(O)O)O2)c(=O)[nH]c1=O [AZT-TP]", 0),
    ("Nc1nc2c(ncn2C2CC(O)C(COP(=O)(O)OP(=O)(O)OP(=O)(O)O)O2)c(=S)[nH]1 (stereo not drawn) [6-thio-dGTP]", 0),
    ("O=c1[nH]cnc2c1ncn2C1CCC(COP(=O)(O)OP(=O)(O)OP(=O)(O)O)O1 (stereo not drawn) [ddITP]", 0),
]
